Values from the supplement of paper PMC10201428

Tested on: VchCAST RNA-guided transposition machinery (E. coli BL21(DE3) host, lacZ target)
Test: relative integration efficiency (T-RL orientation) vs wild-type transposon end (log2 (normalized fold change)); transposon end mutated: left end; higher = more efficient transposition
Rule: relative integration efficiency (log2) of -3 or more gives 1.0; anything lower gives 0.0.

### Prompt Given `AATGTTGTTGATGCAACCATAAAGTGATATTTAATAATTATTTATAATCAGCAACTTAACCACAAAACCCAACGCGCGGTCGCGAGACACCCCACCAACGCCTGGTCGCGGGGGTGTCCGATCTGATTTCAGCAAAACTACTGCAGTAAGAA` , state whether its relative integration efficiency (log2) is at least -3.
### Response 0.0

### Prompt Given `AATGTTGTTGATGCAACCATAAAGTGATATTTAAGCCGGCGGGCGCCGACTACCAGGCCAACACCCCACCAACGCGCGGTCGCGAGACACCCCACCAACGCCTGGTCGCGGGGGTGTCCGATCTGATTTCAGCAAAACTACTGCAGTAAGAA` , state whether its relative integration efficiency (log2) is at least -3.
### Response 0.0

### Prompt Given `AATGTTGTTGATGCAACCATAAAGTGATATTTAATAATTATTTATAATCAGCAACTCAACCATATATTGATATCTCACAAAACAACCATAAGTTGATATTTTTGTGAATCGAGTATTTCAGCAAAACTACTGCAGTAAGAAAGTTACTTCGT` , state whether its relative integration efficiency (log2) is at least -3.
### Response 0.0

### Prompt Given `AATGTTGTTGATGCAACCATAAAGTGATATTTAATAATTATTTATAATCAGCAACTTAACCACAAAATGTGACAACCATATATTGATATCTCACAAAACAACCATAAGTTGATATTTTATCGAGTATTTCAGCAAAACTACTGCAGTAAGAA` , state whether its relative integration efficiency (log2) is at least -3.
### Response 0.0

### Prompt Given `AATGTTGTTGATGCAACCATAAAGTGATATTTAATAATTATTTATAATCAGCAACTTAACCACAACAACCATATATTGATATCTCACAAAACAACCATAAGTTGATATTTTTGTGAATCGAGTATTTCAGCAAAACTACTGCAGTAAGAAAG` , state whether its relative integration efficiency (log2) is at least -3.
### Response 1.0

### Prompt Given `AATGTTGTTGATGCAACCATAAAGTGATATTTAATAATTATTTATAATCAGCAACTTCAACCATATATTGATATCTCACAAAACAACCATAAGTTGATATTTTTGTGAATCGAGTATTTCAGCAAAACTACTGCAGTAAGAAAGTTACTTCG` , state whether its relative integration efficiency (log2) is at least -3.
### Response 1.0

### Prompt Given `AATGTTGTTGATGCAACCATAAGTTGATATTTTATAATTATTTATAATCAGCAACTTAACCACAAAACACCCATAAATTGATATTGCACAAAAGTTGGTATTCAACTATAAAATGTGAATCGAGTATTTCAGCAAAACTACTGCAGTAAGAA` , state whether its relative integration efficiency (log2) is at least -3.
### Response 0.0

### Prompt Given `AATGTTGTTGATGCAACCATAAAGTGATATTTAATAATCAACCATAAAGTGATATTTAACTTAACCACAACCATATATTGATATCTCACAAAACAACCATAAGTTGATATTTTTGTGAATCGAGTATTTCAGCAAAACTACTGCAGTAAGAA` , state whether its relative integration efficiency (log2) is at least -3.
### Response 1.0

### Prompt Given `AATGTTGTTGATGCAACCATAAAGTGATATTTAATAATTATTTATAATCAGCAACTTAACCACAAAACAACCATATATTGATACAAAACAACCATAAGTTGATATTTTTGTGAATCGAGTATTTCAGCAAAACTACTGCAGTAAGAAAGTTA` , state whether its relative integration efficiency (log2) is at least -3.
### Response 0.0

----------
Test system: VchCAST RNA-guided transposition machinery (E. coli BL21(DE3) host, lacZ target)
Assay: relative integration efficiency (T-LR orientation) vs wild-type transposon end (log2 (normalized fold change)); transposon end mutated: right end (5 bp flank + 75 bp right end); higher = more efficient transposition
Rule: relative integration efficiency (log2) of 0.07 or more gives class 1; anything lower gives class 0.

### Prompt Given `ACATTTGTTGATACAACCATAAAATGATAATTACTCTGATCATAGTCAGACCAACATTGCTACGACCCCACCCATAAATTGATAATTATCACACCCATAAATTGATATTGCGTATTCGCACCGACAC` , state whether its relative integration efficiency (log2) is at least 0.07.
### Response class 0

### Prompt Given `ACATTTGTTGATACAACCATAAAATGATAATTACCACCCCTAAATTGATAATTATCACACCCATTTAACTATAACGCTCTGATCATAGTCAGACCAACATTGCTACGACCCGTATTCGCACCGACAC` , state whether its relative integration efficiency (log2) is at least 0.07.
### Response class 0

### Prompt Given `ACATTTGTTGATACAACCATAAAATGATAATTAATAATTATTTATAATCAGCAACTTAACACCCATAAATTGATAATTATCAACAAACGCCCGGTCGCGGTACTCTGATCATAGTCAGACCAACATT` , state whether its relative integration efficiency (log2) is at least 0.07.
### Response class 0

### Prompt Given `ACATTTGTTGATACAACCATAAAATGATCATTACACCCATAAATTGATAATTATCACACCCCATTTAACTATAACGCTCTGATCATAGTCAGACCAACATTGCTACGACCCGTATTCGCACCGACAC` , state whether its relative integration efficiency (log2) is at least 0.07.
### Response class 1

----------
System: VchCAST RNA-guided transposition machinery (E. coli BL21(DE3) host, lacZ target)
Assay: relative integration efficiency (T-LR orientation) vs wild-type transposon end (log2 (normalized fold change)); transposon end mutated: right end (5 bp flank + 75 bp right end); higher = more efficient transposition
Please provide measured relative integration efficiency (log2) for the entries that follow.

### Prompt Item `ACATTTGTTGATACAACCATTTTTTGATAATTACACCCATTTTATGATAATTATCACACCCATTTTATGATATTGCCTCTGATCATAGTCAGACCAACATTGCTACGACCCGTATTCGCACCGACAC` : provide relative integration efficiency (log2)
### Response -1.01

### Prompt Item `ACATTTGTTGATACAACCATAAAAGGATAATTACCCCCATAAATTGATAATTATCACACCCAATTTAACTATAACGCTCTGATCATAGTCAGACCAACATTGCTACGACCCGTATTCGCACCGACAC` : provide relative integration efficiency (log2)
### Response 1.37

### Prompt Item `ACATTTGTTGATACAACCATATATTGATATCTCCACCCATAAATTGATATTGCTCACACCCATAAATTGATATTGCCTCTGATCATAGTCAGACCAACATTGCTACGACCCGTATTCGCACCGACAC` : provide relative integration efficiency (log2)
### Response 0.466

### Prompt Item `ACATTTGTTGATACAACCATAAAATGATAATTACACCCATAAATTGATAATTATCACACCCATAAATTGATATTGCCTCTGGCTAGCATTGTACCTAGGACTGAGCTAGCCATAAACGCACCGACAC` : provide relative integration efficiency (log2)
### Response 0.293

### Prompt Item `ACATTTGTTGATACAACCATAAAATGATAATTACACCCATAAATTGATAATTATCACAAAACGCCCGGTCGCGGTAAGAGGATCATAGTCAGACCAACATTGCTACGACCCGTATTCGCACCGACAC` : provide relative integration efficiency (log2)
### Response 2.81

----------
Test system: VchCAST RNA-guided transposition machinery (E. coli BL21(DE3) host, lacZ target)
Assay: relative integration efficiency (T-RL orientation) vs wild-type transposon end (log2 (normalized fold change)); transposon end mutated: right end (5 bp flank + 75 bp right end); higher = more efficient transposition
endpoint: relative integration efficiency (log2)
The reply should be a number, written without any unit.

### Prompt Item `ACATTTGTTGATACAACCATCAAATGATAATTACACCCATACATTGATAATTATCACACCCAATTTAACTATAACGCTCTGATCATAGTCAGACCAACATTGCTACGACCCGTATTCGCACCGACAC` : provide relative integration efficiency (log2)
### Response -2.9

### Prompt Item `ACATTTGTTGATACAACCATAAAATGATAATTACACCCCTACATTGATAATTATCACACCCAATTTAACTATAACGCTCTGATCATAGTCAGACCAACATTGCTACGACCCGTATTCGCACCGACAC` : provide relative integration efficiency (log2)
### Response -2.87

### Prompt Item `ACATTTGTGGATCCAACCATAAAATGATAATTACACCCATAAATGGATCATTATCACACCCAATTTAACTATAACGCTCTGATCATAGTCAGACCAACATTGCTACGACCCGTATTCGCACCGACAC` : provide relative integration efficiency (log2)
### Response -1.79
